- subject-of-test: GLP-1 receptor (UniProt P43220 24-463, limits assumed)
- assay-method-text: cell-based or functional assay
Where no end group is shown, it is not given here. [ ]: non-standard residue; d: D form. The star is where a group is joined. C18 fatty acyl = 18 carbon fatty acyl group covalently attached to Lys; PEG 40 kDa = PEG (40 kDa) covalently attached to Cys; Myristoyl = CCCCCCCCCCCCCC(=O)*; Aib = CC(C)(N)C(=O)O
Please provide measured EC50 for the entries that follow.

For record Y[Aib]EGTFTSDYSIYLDKQAA[Aib]EFVC(PEG 40 kDa)WLLAGGPSSGAPPPSK(Myristoyl)-NH2 [mt-309] the listed EC50 is 10.4 pM

For record Y[Aib]EGTFTSDYSIYLDKQAA[Aib]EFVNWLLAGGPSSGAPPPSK(Myristoyl)C-NH2 [mt-339] the listed EC50 is 9.2 pM

For record Y[Aib]EGTFTSDYSIYLDKQAA[Aib]EFVC(PEG 40 kDa)WLLAGGPSSGAPPPSK(C18 fatty acyl)-NH2 [mt-310] the listed EC50 is 6.2 pM

For record Y[Aib]EGTFTSDYSIYLDKQAA[Aib]EFVC(PEG 40 kDa)WLLAGGPSSGAPPPSK-NH2 (not fully specified) [mt-311] the listed EC50 is 217 pM

For record YXQGTFTSDYSIYLDXQAAXEFVNWLLAGGPSSGAPPPSC (Orn at position 16; AIB at position 20) [mt-275] the listed EC50 is 6.8 pM

For record Y[Aib]EGTFTSDYSIYLDKQAA[Aib]EFVNWLLAGGPSSGAPPPSKC-NH2 [mt-340] the listed EC50 is 6.1 pM
